# Tested on: 138582-337-R-J1-PDC complex spheroid viability
# protocol.notes: Anticancer human tumor 138582-337-R-J1-PDC patient-derived Merkel cell tumor cell line growth inhibition
# test.context: curve of first compound; second compound 10 µM
readout.type: IC50 (nM)
Just the number in nM, nothing appended.

Let me know recorded IC50 for CC(C)CC(NC(=O)CNC(=O)c1cc(Cl)ccc1Cl)B1OC(=O)CC(CC(=O)O)(C(=O)O)O1 (stereo not drawn) + NC1CC1c1ccc(-c2cccc(O)c2)cc1 , thanks.
9.49

Determine its reported IC50: NS(=O)(=O)OCC1CC(n2ccc3c(NC4CCc5ccccc54)ncnc32)CC1O (stereo not drawn) + NC1CC1c1ccc(-c2cccc(O)c2)cc1
141

----------
# System: 138582-337-R-J1-PDC complex spheroid viability
# protocol.notes: Anticancer human tumor 138582-337-R-J1-PDC cell line growth inhibition;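 further: spheroids exposed to agents for 7 days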;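 on viability, T/C: 100% = DMSO vehicle control viability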
# test.context: second compound 1 µM; first compound 3 µM; stronger effect = lower value
readout.type: viability, T/C

Using the record for NS(=O)(=O)OCC1CC(n2ccc3c(NC4CCc5ccccc54)ncnc32)CC1O (stereo not given) + NC1CC1c1ccc(-c2cccc(O)c2)cc1 , state its measured viability, T/C.
14.6%

Fill in viability, T/C for record O=C(C=Cc1cccc(S(=O)(=O)Nc2ccccc2)c1)NO + NC1CCC(NC2CC2c2ccccc2)CC1
1.94%

Find the measured viability, T/C of CCN(c1cc(-c2ccc(CN3CCOCC3)cc2)cc(C(=O)NCc2c(C)cc(C)[nH]c2=O)c1C)C1CCOCC1 + NC1CCC(NC2CC2c2ccccc2)CC1 and report it.
103%

State its viability, T/C: O=C(C=Cc1cccc(S(=O)(=O)Nc2ccccc2)c1)NO + NC1CC1c1ccc(-c2cccc(O)c2)cc1
49.2%

Please supply the value of reported viability, T/C for the item CCN(c1cc(-c2ccc(CN3CCOCC3)cc2)cc(C(=O)NCc2c(C)cc(C)[nH]c2=O)c1C)C1CCOCC1 + NC1CC1c1ccc(-c2cccc(O)c2)cc1
60.5%

Report measured viability, T/C; entry is COc1cc(C2c3cc4c(cc3C(OC3OC5COC(C)OC5C(O)C3O)C3COC(=O)C23)OCO4)cc(OC)c1O (stereo not given) + NC1CCC(NC2CC2c2ccccc2)CC1
85.2%

Entry Nc1ccccc1NC(=O)c1ccc(CNC(=O)OCc2cccnc2)cc1 + NC1CC1c1ccc(-c2cccc(O)c2)cc1 needs its viability, T/C filled in; supply it.
0.31%

Please report viability, T/C for the following compound: Nc1ccccc1NC(=O)c1ccc(CNC(=O)OCc2cccnc2)cc1 + NC1CCC(NC2CC2c2ccccc2)CC1
0.81%

Item COc1cc(C2c3cc4c(cc3C(OC3OC5COC(C)OC5C(O)C3O)C3COC(=O)C23)OCO4)cc(OC)c1O (stereo not given) + NC1CC1c1ccc(-c2cccc(O)c2)cc1 : provide viability, T/C
40.7%

Supply measured viability, T/C of NS(=O)(=O)OCC1CC(n2ccc3c(NC4CCc5ccccc54)ncnc32)CC1O (stereo not given) + NC1CCC(NC2CC2c2ccccc2)CC1 in your reply.
32.2%

----------
Exercise: for every item that follows, state its recorded viability, T/C.
# Tested on: 138582-337-R-J1-PDC complex spheroid viability
# protocol.notes: Anticancer human tumor 138582-337-R-J1-PDC cell line growth inhibition;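 further: spheroids exposed to agents for 7 days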;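 on viability, T/C: 100% = DMSO vehicle control viability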
# test.context: second compound 0.316 µM; first compound 0.1 µM; stronger effect = lower value

Give me measured viability, T/C, please, for this molecule: COc1ccc([C@@H](O)c2cc(-c3ncnc4cc(N5CCOCC5)ccc34)c(F)cc2Cl)nn1 + NC1CC1c1ccc(-c2cccc(O)c2)cc1
72.2%

Answer with the recorded viability, T/C of Cn1ncnc1C1c2n[nH]c(=O)c3cc(F)cc(c23)NC1c1ccc(F)cc1 (stereo not given) + NC1CC1c1ccc(-c2cccc(O)c2)cc1 only.
70.7%

Determine its reported viability, T/C: CC1(C)CCC(CN2CCN(c3ccc(C(=O)NS(=O)(=O)c4ccc(NCC5CCOCC5)c([N+](=O)[O-])c4)c(Oc4cnc5[nH]ccc5c4)c3)CC2)=C(c2ccc(Cl)cc2)C1 + NC1CCC(NC2CC2c2ccccc2)CC1
104%

Give the value of viability, T/C reported for the following: O=C(c1cc(Cc2n[nH]c(=O)c3ccccc23)ccc1F)N1CCN(C(=O)C2CC2)CC1 + NC1CC1c1ccc(-c2cccc(O)c2)cc1
73.7%

Indicate its recorded viability, T/C; the molecule in question is CC(C)CC(NC(=O)C(Cc1ccccc1)NC(=O)c1cnccn1)B(O)O (stereo not given) + NC1CCC(NC2CC2c2ccccc2)CC1
0.25%

----------
# Test system: 138582-337-R-J1-PDC complex spheroid viability
# protocol.notes: Anticancer human tumor 138582-337-R-J1-PDC cell line growth inhibition; active = viability on the fitted dose curve at most 10% of control; inactive = the rest;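 further: spheroids exposed to agents for 7 days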
# test.context: second compound 0.316 µM; first compound 0.1 µM
Entry note: the call must match one of active, inactive

# outcome recorded in this test, key = CC(C)c1c(-c2ccccc2)nc2c(C#N)c[nH]n2c1=O + NC1CCC(NC2CC2c2ccccc2)CC1
inactive

Please share the test call associated with CC(C)CC(NC(=O)CNC(=O)c1cc(Cl)ccc1Cl)B1OC(=O)CC(CC(=O)O)(C(=O)O)O1 (configuration not stated) + NC1CC1c1ccc(-c2cccc(O)c2)cc1 .
active

Dear all, I need the recorded test outcome for O=C(c1cc(Cc2n[nH]c(=O)c3ccccc23)ccc1F)N1CCN(C(=O)C2CC2)CC1 + NC1CCC(NC2CC2c2ccccc2)CC1 , thank you.
inactive

Hi, do you know how CC1COCCN1c1cc(C2(S(C)(=N)=O)CC2)nc(-c2ccnc3[nH]ccc23)n1 (configuration not stated) + NC1CC1c1ccc(-c2cccc(O)c2)cc1 came out in this test?
inactive

// return assay outcome for Nc1ncn(C2CC(O)C(CO)O2)c(=O)n1 (configuration not stated) + NC1CCC(NC2CC2c2ccccc2)CC1
inactive

What did this assay record as the result for CC(C)CC(NC(=O)C(Cc1ccccc1)NC(=O)c1cnccn1)B(O)O (configuration not stated) + NC1CC1c1ccc(-c2cccc(O)c2)cc1 ?
active

// return assay outcome for CC1COCCN1c1cc(C2(S(C)(=N)=O)CC2)nc(-c2ccnc3[nH]ccc23)n1 (configuration not stated) + NC1CCC(NC2CC2c2ccccc2)CC1
inactive

----------
# Tested on: 138582-337-R-J1-PDC complex spheroid viability
# protocol.notes: Anticancer human tumor 138582-337-R-J1-PDC cell line growth inhibition;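 further: spheroids exposed to agents for 7 days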;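 on viability, T/C: 100% = DMSO vehicle control viability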
# test.context: second compound 1 µM; first compound 0.03 µM; stronger effect = lower value
readout.type: viability, T/C (%)
Enter your answer as a number in %; do not include the unit.

Supply measured viability, T/C of Nc1ccccc1NC(=O)c1ccc(CNC(=O)OCc2cccnc2)cc1 + NC1CC1c1ccc(-c2cccc(O)c2)cc1 in your reply.
53

Consider the molecule O=C(C=Cc1cccc(S(=O)(=O)Nc2ccccc2)c1)NO + NC1CCC(NC2CC2c2ccccc2)CC1 and give its recorded viability, T/C.
92.6

Please report the measured viability, T/C for COc1cc(C2c3cc4c(cc3C(OC3OC5COC(C)OC5C(O)C3O)C3COC(=O)C23)OCO4)cc(OC)c1O (stereo not drawn) + NC1CCC(NC2CC2c2ccccc2)CC1
95.3

Determine its reported viability, T/C: O=C(C=Cc1cccc(S(=O)(=O)Nc2ccccc2)c1)NO + NC1CC1c1ccc(-c2cccc(O)c2)cc1
51

Let me know recorded viability, T/C for CCN(c1cc(-c2ccc(CN3CCOCC3)cc2)cc(C(=O)NCc2c(C)cc(C)[nH]c2=O)c1C)C1CCOCC1 + NC1CCC(NC2CC2c2ccccc2)CC1 , thanks.
106

For the molecule COc1cc(C2c3cc4c(cc3C(OC3OC5COC(C)OC5C(O)C3O)C3COC(=O)C23)OCO4)cc(OC)c1O (stereo not drawn) + NC1CC1c1ccc(-c2cccc(O)c2)cc1 , give its measured viability, T/C value.
75.9

Quickly give me recorded viability, T/C for CCc1c2c(nc3ccc(O)cc13)-c1cc3c(c(=O)n1C2)COC(=O)[C@]3(O)CC + NC1CCC(NC2CC2c2ccccc2)CC1
14.5

Please supply the value of reported viability, T/C for the item Nc1ncn(C2CC(O)C(CO)S2)c(=O)n1 (stereo not drawn) + NC1CCC(NC2CC2c2ccccc2)CC1
87.8

----------
# System: 138582-337-R-J1-PDC complex spheroid viability
# protocol.notes: Anticancer human tumor 138582-337-R-J1-PDC cell line growth inhibition;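 further: spheroids exposed to agents for 7 days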;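 on viability, T/C: 100% = DMSO vehicle control viability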
# test.context: second compound 10 µM; first compound 10 µM; stronger effect = lower value
Please go through the items and note down their viability, T/C.

Provide viability, T/C, system 138582-337-R-J1-PDC complex spheroid viability, entry CC1COCCN1c1cc(C2(S(C)(=N)=O)CC2)nc(-c2ccnc3[nH]ccc23)n1 (stereo not drawn) + NC1CCC(NC2CC2c2ccccc2)CC1
21.3%

State viability, T/C (138582-337-R-J1-PDC complex spheroid viability) of O=C(c1cc(Cc2n[nH]c(=O)c3ccccc23)ccc1F)N1CCN(C(=O)C2CC2)CC1 + NC1CCC(NC2CC2c2ccccc2)CC1 .
63.7%

GET viability, T/C | system: 138582-337-R-J1-PDC complex spheroid viability | item: CC1(C)CCC(CN2CCN(c3ccc(C(=O)NS(=O)(=O)c4ccc(NCC5CCOCC5)c([N+](=O)[O-])c4)c(Oc4cnc5[nH]ccc5c4)c3)CC2)=C(c2ccc(Cl)cc2)C1 + NC1CCC(NC2CC2c2ccccc2)CC1
63.5%
